// provenance: patent US20120238493A1

# TEST_SYSTEM: GLP-1 receptor (UniProt P43220 24-463, limits assumed)
# MEASUREMENT_PROTOCOL: cell-based or functional assay
Bridges are numbered along the chain shown (N, C = ends). Where no end group is shown, it is not given here. Side-chain parts run from the residue outwards. [ ]: non-standard residue; d: D form. PEG40kDa = 40 kDa polyethylene glycol attached; Aib = CC(C)(N)C(=O)O
MEASUREMENT_KIND: EC50 (cAMP reporter) (nM)
One number for each entry, in nM.

BINDER | EC50 (cAMP reporter), nM
Y[Aib]PGTFISDYSIAMDKIHQQDFVC(PEG40kDa)WLLAQKGKKNWLKHNITQ-NH2 (not fully specified) [mt-228 (SEQ ID NO: 26)] | 0.146
Y[Aib]PGTFISDYSIAMDKIHQQDFVCWLLAQKGKKNWLKHNITQ-NH2 (not fully specified) [mt-226 (SEQ ID NO: 24)] | 0.097
Y[Aib]QGTFTSDYSIYLDEQAAKEFVNWLLAGGPSSGAPPPSK([Ala-Cys(PEG 40 kDa)-Ac])-NH2 (lactam 16-20) [mt-225 (SEQ ID NO: 23)] | 0.098
Y[Aib]PGTFISDYSIAMDKIHQQDFVNWLLAQKGKKNWLKHNITQ-NH2 (not fully specified) [mt-219 (SEQ ID NO: 21)] | 0.151

Now for another entry.
// query # lookup: EC50 (cAMP reporter) of Y[Aib]EGTFISDYSIAMDKIHQQDFVNWLLAQKGKKNWLKHNITQ-NH2 (not fully specified) [mt-217 (SEQ ID NO: 19)]
// result 0.222
